STUDY_SYSTEM: human PD-L1 / human PD-1 interaction (Homo sapiens, UniProt Q9NZQ7)
Construct: ACRO Biosystems (PD-1, biotin)
Sequence (Q9NZQ7 19-239 limits assumed): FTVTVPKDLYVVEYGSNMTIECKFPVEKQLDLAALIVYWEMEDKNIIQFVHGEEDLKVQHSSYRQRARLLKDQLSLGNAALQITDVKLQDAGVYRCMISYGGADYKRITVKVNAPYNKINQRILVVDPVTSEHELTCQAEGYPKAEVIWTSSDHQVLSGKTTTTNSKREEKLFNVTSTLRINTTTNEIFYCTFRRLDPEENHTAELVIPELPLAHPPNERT
ASSAY_EXPLANATION: ELISA of PD-1/PD-L1 interaction
Task for the reader: assign each of the following molecules its reported IC50.

Report IC50 for N#Cc1cncc(COc2cc(O[C@H]3CCc4c(-c5cccc(OCCCN6CC7(C6)CC(F)(F)C7)c5Cl)cccc43)c(Cl)cc2CN[C@@H]2CCC[C@H]2O)c1 < 5 nM

For the molecule Cc1c(OCCCN2CCC(F)(F)CC2)cccc1-c1cccc2c1CC[C@@H]2Oc1cc(OCc2cncc(C#N)c2)c(CN[C@H](C(=O)O)[C@@H](C)O)cc1Cl , report IC50. 5 to 500 nM

Specify measured IC50 for N#Cc1cncc(COc2cc(O[C@H]3CCc4c(-c5cccc(OCCCN6CC(O)C6)c5Cl)cccc43)c(Cl)cc2CN2CCC(O)CC2)c1 . < 5 nM

Let me know recorded IC50 for Cc1c(OCCCN2CCC(F)CC2)cccc1-c1cccc2c1CC[C@@H]2Oc1cc(OCc2cncc(C#N)c2)c(CNC[C@H]2CCC(=O)N2)cc1Cl , thanks. < 5 nM

In one line, give reported IC50 of the entry N#Cc1cncc(COc2cc(O[C@H]3CCc4c(-c5cccc(OCCCN6CC7(CC(O)C7)C6)c5Cl)cccc43)c(Cl)cc2CNC[C@@H]2CCC(=O)N2)c1 . < 5 nM

Please list IC50 recorded for the molecule Cc1c(OCCCN2CCC(F)CC2)cccc1-c1cccc2c1CC[C@@H]2Oc1cc(OCc2cc(C#N)cc(C#N)c2)c(CN[C@H]2CCOC[C@H]2O)cc1Cl < 5 nM

====

For each of the compounds below, state its IC50.
STUDY_SYSTEM: human PD-L1 / human PD-1 interaction (Homo sapiens, UniProt Q9NZQ7)
Construct: ACRO Biosystems (PD-1, biotin)
ASSAY_EXPLANATION: ELISA of PD-1/PD-L1 interaction

Supply IC50 value. Item: Cc1c(OCCCN2CCC(C)CC2)cccc1-c1cccc2c1CC[C@@H]2Oc1cc(OCc2cc(C#N)cc(C#N)c2)c(CNC[C@@H]2CCC(=O)N2)cc1Cl < 5 nM

Report IC50 for Cc1c(OCCCN2CCC(O)CC2)cccc1-c1cccc2c1CC[C@@H]2Oc1cc(OCc2cc(C#N)cc(C#N)c2)c(CN[C@@](C)(CO)C(=O)O)cc1Cl < 5 nM

Tell me its IC50 given Cc1c(OCCCN2CCC(O)CC2)cccc1-c1cccc2c1CC[C@@H]2Oc1cc(OCc2cncc(C#N)c2)c(CN2CC[C@H](O)C2)cc1Cl as the entry. < 5 nM

====

STUDY_SYSTEM: human PD-L1 / human PD-1 interaction (Homo sapiens, UniProt Q9NZQ7)
Construct: ACRO Biosystems (PD-1, biotin)
ASSAY_EXPLANATION: ELISA of PD-1/PD-L1 interaction
MEASUREMENT_TYPE: IC50

Provide IC50 value for the following compound: Cc1c(OCCCN2CCCC2C(C)C)cccc1-c1cccc2c1CC[C@@H]2Oc1cc(OCc2cc(C#N)cc(C#N)c2)c(CN[C@H]2CCC(=O)NC2)cc1Cl (stereo partly drawn) 5 to 500 nM

Give IC50 for the following compound: CCOc1cc(O[C@H]2CCc3c(-c4cccc(OCCCN5C(C)CC5C)c4C)cccc32)c(Cl)cc1CNC[C@@H]1CCC(=O)N1 (stereo partly drawn) < 5 nM

Give me measured IC50, please, for this compound: Cc1c(OCCCN2CCC(O)CC2)cccc1-c1cccc2c1CC[C@@H]2Oc1cc(OCc2cc(C#N)cc(C#N)c2)c(CN[C@@H](CO)C(=O)O)cc1Cl < 5 nM

Return IC50 (reported value) for this compound: Cc1c(OCCCN2C(C)CC2C)cccc1-c1cccc2c1CC[C@@H]2Oc1cc(OCc2cc(C#N)cc(C#N)c2)c(CN[C@H]2CCC(=O)NC2)cc1Cl (stereo partly drawn) < 5 nM

Recall and state the measured IC50 for Cc1c(OCCCN2CCCC[C@@H]2C)cccc1-c1cccc2c1CC[C@@H]2Oc1cc(OCc2cc(C#N)cc(C#N)c2)c(CN[C@H]2CCC(=O)NC2)cc1Cl . < 5 nM

Please give the documented IC50 of Cc1c(OCCCN2C(C)CCC2C)cccc1-c1cccc2c1CC[C@@H]2Oc1cc(OCc2cc(C#N)cc(C#N)c2)c(CN[C@H]2CCC(=O)NC2)cc1Cl (stereo partly drawn) < 5 nM
